# Tested on: HIV-1 Y181C mutant strain
# testProtocol: microbe, parasite or virus in culture
# Type: cell-based
# reportedConditions: ratio of EC50 (resistant viral strain)/EC50 (wild-type viral strain)
// reported RF Y181C for each item listed
Enter a number only.

Observe how each entry below is paired with its result.
GET /values?readout=RF Y181C&item= Cc1cc(-c2ccc(C#N)cc2)cc(C)c1Oc1nc(NC2CCN(Cc3ccc(S(N)(=O)=O)cc3)CC2)nc2ccsc12 [Compound 25] 1.8

What does the record list as RF Y181C for Cc1cc(-c2ccco2)cc(C)c1Oc1nc(NC2CCN(Cc3ccc(S(N)(=O)=O)cc3)CC2)nc2ccsc12 [Compound 11] ? 3.6

Field request: RF Y181C | item: Cc1cc(-c2ccc(N(C)C)cc2)cc(C)c1Oc1nc(NC2CCN(Cc3ccc(S(N)(=O)=O)cc3)CC2)nc2ccsc12 [Compound 29] 3.3

Would you kindly share the measured RF Y181C for Cc1cc(-c2ccccc2)cc(C)c1Oc1nc(NC2CCN(Cc3ccc(S(N)(=O)=O)cc3)CC2)nc2ccsc12 [Compound 19] ? 3.8

Query: RF Y181C; subject: Cc1cc(-c2ccsc2)cc(C)c1Oc1nc(NC2CCN(Cc3ccc(S(N)(=O)=O)cc3)CC2)nc2ccsc12 [Compound 17] 2.0

Next:
Entry Cc1cc(-c2cccc(N(C)C)c2)cc(C)c1Oc1nc(NC2CCN(Cc3ccc(C(N)=O)cc3)CC2)nc2ccsc12 [Compound 32] : reported RF Y181C = ? 3.8

Consider the compound shown here: Cc1cc(-c2cccs2)cc(C)c1Oc1nc(NC2CCN(Cc3ccc(S(N)(=O)=O)cc3)CC2)nc2ccsc12 [Compound 15] What is its recorded RF Y181C? 1.9

Bench note: what RF Y181C did Cc1cc(-c2ccc(N(C)C)cc2)cc(C)c1Oc1nc(NC2CCN(Cc3ccc(C(N)=O)cc3)CC2)nc2ccsc12 [Compound 30] show? 3.3

What value of RF Y181C has been recorded for this entry: Cc1cc(-c2cccs2)cc(C)c1Oc1nc(NC2CCN(Cc3ccc(C(N)=O)cc3)CC2)nc2ccsc12 [Compound 16] 3.6
